# System: Enterococcus faecalis
# test.details: Antibacterial activity against Enterococcus faecalis clinical isolate after 24 hr by two-fold serial dilution method
# Type: functional
Collected MIC values appear next to each entry.
recorded.endpoint: MIC (µg/mL)

> print(dat)
                                   compound  recorded.endpoint  result
1  O=c1ccc(-c2ccc(Cl)cc2)nn1CCN1CCN(c2ccc(F)cc2)CC1                MIC      64
2  O=c1ccc(-c2ccc(Cl)cc2)nn1CCN1CCN(c2ccc(Cl)cc2)CC1                MIC      64
3  O=c1ccc(-c2ccccc2)nn1CCN1CCN(c2ccc(Cl)cc2)CC1                MIC      64
4  CC1COc2c(N3CCN(C)CC3)c(F)cc3c(=O)c(C(=O)O)cn1c23 (stereo not given)                MIC       2
5  COc1ccc(N2CCN(CCn3nc(-c4ccccc4)ccc3=O)CC2)cc1                MIC      64
